B1: glmS ribozyme (parent)
chain: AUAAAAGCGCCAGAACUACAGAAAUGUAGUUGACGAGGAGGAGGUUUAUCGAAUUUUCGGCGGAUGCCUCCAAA

- Variants of: B1
- ASSAY NOTES: self-cleavage kobs at 640 uM GlcN6P; higher = faster cleavage; RNA array
- CONDITION LABEL: with glucosamine-6-phosphate
Fewer inactive variants are shown than the library holds.
Reported self-cleavage kobs at 640 uM GlcN6P values follow for various variants

Guide cases for self-cleavage kobs at 640 uM GlcN6P, answers given:
| ORDERED RESIDUES | self-cleavage kobs at 640 uM GlcN6P |
| --- | --- |
| AUAAAAGCGCCAGAACUACAGAAAUGUAGUUGACGAGGAAGGGGUUUAUCUAAUUUACGGCGGAUGCCCCCAAA | < 1e-05 s⁻¹ |
| AUAAAAGCGCCAGAACUACAGAAAUGUAGUUGACGAGGAGGAGGUUUAUCGAAUUUUGGGCGGAUGCGUCCAAA | 9.11e-05 s⁻¹ |
| AUAAAUGCGCCAGAACUACAGAAAUGUAGUUGAAGAGGAGGAGGUUUAUCGAAUUUUCGGCGCAUGCCUCCAAA | < 1e-05 s⁻¹ |
| AUAAAAGCAUCAGAACUACAGAAAUGUAGUUGACGAGGAGGAGGUUUAUCGAAUUUUCGGCGGAUGCCUCCAAA | < 1e-05 s⁻¹ |
| AUAAAAGCGCCAGAACUACAGAAAUGUAGUUGCCGUUGAGGAGGUUUAUCGAAUUUUCGGCGGAUGCCUCUAAA | < 1e-05 s⁻¹ |

Prompt: Item "AUAAAAGCGCCAGAACUACAGAAAUGUAGUUGAGGAGGAGGAGGUUUAUCGAAUUUUCGGCGGAUGCCGCCAAA" has what recorded self-cleavage kobs at 640 uM GlcN6P?
Response: 0.000107 s⁻¹
